src = PubChem BioAssay (NCI)

tested on: MDA-MB-231 breast; test: NCI tumour cell line growth inhibition, 48 h

COMPOUND: C[N+]1(CCN[N+]2(C)CCCCC2)CCc2ccccc2C1 (stereo unspecified)
TGI: > 100 µM
--
COMPOUND: O=C1Nc2ccccc2/C1=c1\[nH]c(=O)/c(=C\c2ccc(OCc3ccccc3)cn2)[nH]c1=O
TGI: 91.7 µM
--
COMPOUND: O=C(CCc1ccccc1)ON1C(=S)C(c2ccccc2)(c2ccccc2)N=C1Sc1ccccc1
TGI: > 100 µM
--
COMPOUND: CN(C)c1cc[n+](-c2nc(/N=C(\[O-])C(F)(F)F)nc3c2ncn3C2CC(O)C(CO)O2)cc1 (stereo unspecified)
TGI: > 100 µM
--
COMPOUND: Cn1c(N/N=C/c2ccccc2)nc(-c2ccc([N+](=O)[O-])cc2)c(C#N)c1=O
TGI: 86.7 µM
--
COMPOUND: O=C1/C=C/[C@@H](O)[C@@H]2C[C@@H](O)C[C@H]2/C=C/CCC[C@H](C(F)(F)F)O1
TGI: 0.774 µM

* * *

system: SNB-75 CNS; test: NCI tumour cell line growth inhibition, 48 h; in the data active = GI50 below about 0.43 µM; inactive = the rest
Outcome codes: true (1) for active, false (0) for inactive

COMPOUND_STRUCTURE: O=C1NC(=NCCCc2ccccc2)S/C1=C\c1ccc2ncccc2c1
TARGET_UNDER_TEST: SNB-75 CNS
CAT: false (0)
--
COMPOUND_STRUCTURE: Cn1c(-c2c(N)n(CCCN3CCOCC3)c3nc(C#N)c(C#N)nc23)nc2ccccc21
TARGET_UNDER_TEST: SNB-75 CNS
CAT: false (0)
--
COMPOUND_STRUCTURE: O=C(Nc1nc2ccccc2s1)Nc1ccc([N+](=O)[O-])cc1Cl
TARGET_UNDER_TEST: SNB-75 CNS
CAT: false (0)
--
COMPOUND_STRUCTURE: N=c1c2c(=N)n3c(nc2nc2n1-c1ccccc1Sc1ccccc1-2)sc1cc(Cl)ccc13
TARGET_UNDER_TEST: SNB-75 CNS
CAT: false (0)
--
COMPOUND_STRUCTURE: Oc1[nH]c2ccccc2c1/C=c1/cc2c(c(-c3ccc(F)cc3)n1)=Nc1ccccc1-2
TARGET_UNDER_TEST: SNB-75 CNS
CAT: true (1)
--
COMPOUND_STRUCTURE: COc1ccc(/C(C#N)=C2C=C/C(=N/O)c3ccccc3\2)cc1
TARGET_UNDER_TEST: SNB-75 CNS
CAT: true (1)
--
COMPOUND_STRUCTURE: COC(=O)[C@H]1CCCN1C(=O)[C@H]1CCCN1C(=O)[C@H](Cc1c[nH]c2ccccc12)NC(=S)Nc1cc(C(F)(F)F)cc(C(F)(F)F)c1
TARGET_UNDER_TEST: SNB-75 CNS
CAT: false (0)
--
COMPOUND_STRUCTURE: CC[n+]1c(/C=C/C=C2\N(C)c3ccccc3C2(C)C)sc2ccccc21
TARGET_UNDER_TEST: SNB-75 CNS
CAT: false (0)
--
COMPOUND_STRUCTURE: CC1=C(Nc2ccc(N3CCN(C)CC3)cc2)C(=O)c2cncnc2C1=O
TARGET_UNDER_TEST: SNB-75 CNS
CAT: false (0)

* * *

system: COLO 205 colon; experiment: NCI tumour cell line growth inhibition, 48 h; in the data active = GI50 below about 0.43 µM; inactive = the rest
Labels: active, inactive

MOLECULE: COC(=O)[C@H]1CCCN1C(=O)[C@H]1CCCN1C(=O)[C@H](Cc1c[nH]c2ccccc12)NC(=S)Nc1cc(C(F)(F)F)cc(C(F)(F)F)c1
TARGET_UNDER_TEST: COLO 205 colon
CAT: inactive

MOLECULE: COc1nnc2ccc(N3CCC(c4ccc(OCCN5CCN(C)C(=O)[C@H]5C)cc4)CC3)nn12
TARGET_UNDER_TEST: COLO 205 colon
CAT: active

MOLECULE: CN1C(=O)C2(c3ccccc31)N(c1ccc(Cl)cc1)C(=O)C2(c1ccccc1)c1ccccc1 (stereo unspecified)
TARGET_UNDER_TEST: COLO 205 colon
CAT: inactive

MOLECULE: c1cc2c(cn1)Nc1ccncc1S2
TARGET_UNDER_TEST: COLO 205 colon
CAT: inactive

MOLECULE: CCC(=O)c1c(C(F)(F)F)n([O-])c2cc(F)c(F)cc2[n+]1=O
TARGET_UNDER_TEST: COLO 205 colon
CAT: inactive

MOLECULE: COc1cc2cc(Oc3ccc(NC(=O)Nc4ccc(Cl)c(Cl)c4)cc3)c(C)nc2cc1OC
TARGET_UNDER_TEST: COLO 205 colon
CAT: inactive

MOLECULE: CC[C@H](C)[C@H](NC(=O)[C@H]1CCCCN1C)C(=O)N(C)[C@H](C[C@@H](OC(C)=O)c1nc(C(=O)N[C@@H](Cc2ccccc2)C[C@H](C)C(=O)O)cs1)C(C)C
TARGET_UNDER_TEST: COLO 205 colon
CAT: active

MOLECULE: NC(=S)c1c(N)n(C2OC(CO)C(O)C2O)c2ncnc(N)c12 (stereo unspecified)
TARGET_UNDER_TEST: COLO 205 colon
CAT: active

MOLECULE: O=C1Cc2cc(C(=O)NC3C[C@H]4CC[C@@H](C3)N4S(=O)(=O)CC3CCN(CCCC(F)(F)F)CC3)c(Cl)cc2N1 (stereo partly specified)
TARGET_UNDER_TEST: COLO 205 colon
CAT: inactive

MOLECULE: COC(=O)c1ccc(NC(=O)Oc2ccc(N(CCCl)CCCl)cc2)cc1
TARGET_UNDER_TEST: COLO 205 colon
CAT: inactive

MOLECULE: CCCCCCCCCCCC[n+]1ccc2ccccc2c1
TARGET_UNDER_TEST: COLO 205 colon
CAT: inactive

MOLECULE: CCn1c(-c2nonc2N)nc2cncc(C(=O)N3CC[C@H](N)C3)c21
TARGET_UNDER_TEST: COLO 205 colon
CAT: inactive

MOLECULE: CC(=O)[CH-]C(=O)c1ccccc1.CC(=O)[CH-]C(=O)c1ccccc1.C[C@]12CCC(=O)C=C1CC[C@@H]1C2CC[C@@]2(C)C1CC[C@]2(C)[O-].C[C@]12CCC(=O)C=C1CC[C@@H]1C2CC[C@@]2(C)C1CC[C@]2(C)[O-].Cl.[Ti+4] (stereo partly specified)
TARGET_UNDER_TEST: COLO 205 colon
CAT: inactive

MOLECULE: CC(=O)[O][Hg][c]1c(C)c(C)cc(C)c1C
TARGET_UNDER_TEST: COLO 205 colon
CAT: inactive

MOLECULE: CCCCCCCCCCCCCC[C@@H](O)[C@H]1CC[C@H]([C@H]2CC[C@H]([C@H](O)CCCCCC[C@@H](O)CC3=C[C@H](C)OC3=O)O2)O1
TARGET_UNDER_TEST: COLO 205 colon
CAT: inactive

MOLECULE: CSc1ccc2c(c1)C(N1CCN(C)CC1)Cc1ccccc1S2 (stereo unspecified)
TARGET_UNDER_TEST: COLO 205 colon
CAT: inactive

MOLECULE: COc1ccc(/C=C/C(=O)c2sc(-n3nc(-c4ccccc4)cc3-c3ccccc3)nc2C)cc1
TARGET_UNDER_TEST: COLO 205 colon
CAT: inactive

MOLECULE: CCN1CCN(C(=O)[C@]23CCC(C)(C)C[C@@H]2C2=CC[C@@H]4[C@@]5(C)C/C(=C/c6ccncc6)C(=O)C(C)(C)[C@@H]5CC[C@@]4(C)[C@]2(C)CC3)CC1
TARGET_UNDER_TEST: COLO 205 colon
CAT: inactive

MOLECULE: O=C1NC(=NCCCc2ccccc2)S/C1=C\c1ccc2ncccc2c1
TARGET_UNDER_TEST: COLO 205 colon
CAT: inactive

MOLECULE: CN(CC(=O)N(Cc1ccc(C2CCCCC2)cc1)c1ccc(C(=O)O)cc1)S(=O)(=O)c1c(F)c(F)c(F)c(F)c1F
TARGET_UNDER_TEST: COLO 205 colon
CAT: inactive

MOLECULE: CCCCCCC[CH2][Sn]1([CH2]CCCCCCC)[O]C(=O)c2cccnc2[O]1
TARGET_UNDER_TEST: COLO 205 colon
CAT: inactive

* * *

tested on: CAKI-1 renal; test: NCI tumour cell line growth inhibition, 48 h
Measured TGI values are reported for all entries that follow.
QUANTITY: TGI

COMPOUND: O=C(Nc1ccccc1)c1cc(S(=O)(=O)N2CCNNC2=O)c(S)cc1Cl
TARGET_UNDER_TEST: CAKI-1 renal
RESULT: > 100 µM
//
COMPOUND: COc1cc(-c2nn(-c3cccc(NC(=O)c4ccc(Cl)c(C(F)(F)F)c4)c3)cc2-c2ccncc2)ccc1Cl
TARGET_UNDER_TEST: CAKI-1 renal
RESULT: > 32.5 µM
//
COMPOUND: O=[N+]([O-])c1ccc(O)c(/C=N/NC(=S)N2CCCCC2)c1
TARGET_UNDER_TEST: CAKI-1 renal
RESULT: 34.4 µM
//
COMPOUND: CCCCCCC[CH2][Sn]1([CH2]CCCCCCC)[O]C(=O)c2cccnc2[O]1
TARGET_UNDER_TEST: CAKI-1 renal
RESULT: > 100 µM
//
COMPOUND: NC(=O)NC1C(C(N)=O)N(Cc2ccccc2)C(=O)N1Cc1ccccc1 (stereo not given)
TARGET_UNDER_TEST: CAKI-1 renal
RESULT: > 100 µM
//
COMPOUND: COc1nnc2ccc(N3CCC(c4ccc(OCCN5CCN(C)C(=O)[C@H]5C)cc4)CC3)nn12
TARGET_UNDER_TEST: CAKI-1 renal
RESULT: > 100 µM
//
COMPOUND: CC(=O)OC1COC(n2c(=S)n(-c3ccccc3)c(=O)c3ccccc32)C(OC(C)=O)C1OC(C)=O (stereo not given)
TARGET_UNDER_TEST: CAKI-1 renal
RESULT: > 100 µM
//
COMPOUND: CCOC(=O)COc1ccc2c(C)cc(=O)oc2c1
TARGET_UNDER_TEST: CAKI-1 renal
RESULT: > 100 µM
//
COMPOUND: COc1ccc(N=N/C(C(=O)C(F)(F)F)=C(\O)c2ccc(Cl)cc2)cc1
TARGET_UNDER_TEST: CAKI-1 renal
RESULT: 25.5 µM
//
COMPOUND: O=c1cnn(CCOCP(=O)(O)O)c(=O)[nH]1
TARGET_UNDER_TEST: CAKI-1 renal
RESULT: > 100 µM
